The next entries give measured IC50 for UniProtKB G1ST54.

compound	IC50
CCOc1ccc(S(=O)(=O)NCC2CCCN2C)cc1-c1nc2c(CC(C)C)nn(C)c2c(=O)[nH]1 (stereo not drawn)	> 199 µM
CCOc1ccc(S(=O)(=O)NCc2ccccc2)cc1-c1nc2c(CC(C)C)nn(C)c2c(=O)[nH]1	> 202 µM
CCCc1nn(C)c2c(=O)[nH]c(-c3cc(S(=O)(=O)NCc4cccnc4)ccc3OCC)nc12	20.9 µM
CCCOc1ccc(S(=O)(=O)Nc2ccncc2)cc1-c1nc2c(CCC)nn(C)c2c(=O)[nH]1	> 207 µM
CCCOc1ccc(S(=O)(=O)NCc2ccncc2)cc1-c1nc2c(CCC)nn(C)c2c(=O)[nH]1	12.6 µM

Please look at the following compound next.
In plain terms, CCOc1ccc(S(=O)(=O)Nc2cccnc2)cc1-c1nc2c(CC(C)C)nn(C)c2c(=O)[nH]1 has a documented IC50 of 9.93 µM

---

Give solubility at 30 min for every item shown.
# assay_details: Solubility in buffer solution in pH=2&5
# Assay type: physicochemical
# assay_conditions: citrate-HCl buffer, 20 °C, pH 2, aqueous buffer, thermodynamic from solid, citrate-HCl buffer (pH 2); read-out: solubility pH 2

Below: 3 compounds and their reported solubility at 30 min.
compound	val
CCCOc1ccc(S(=O)(=O)NCC2CCN(C)C2)cc1-c1nc2c(CCC)nn(C)c2c(=O)[nH]1 (centres unmarked) [Example 60]	3720 to 5360 µg/mL
CCOc1ccc(S(=O)(=O)Nc2ccncc2)cc1-c1nc2c(CC(C)C)nn(C)c2c(=O)[nH]1 [Example 37]	99 µg/mL
CCCc1nn(C)c2c(=O)[nH]c(-c3cc(S(=O)(=O)N4CCN(C)CC4)ccc3OCC)nc12 [sildenafil, reference compound]	1580 µg/mL

Dear colleague, could you send me solubility at 30 min for each of the items below? Thanks.
1. CCOc1ccc(S(=O)(=O)NCc2ccccn2)cc1-c1nc2c(CC(C)C)nn(C)c2c(=O)[nH]1 [Example 51]
2. CCCOc1ccc(S(=O)(=O)NCCC2CCCN2C)cc1-c1nc2c(CCC)nn(C)c2c(=O)[nH]1 (centres unmarked) [Example 68]
3. CCOc1ccc(S(=O)(=O)NCCC2CCCN2C)cc1-c1nc2c(CC(C)C)nn(C)c2c(=O)[nH]1 (centres unmarked) [Example 70]
4. CCOc1ccc(S(=O)(=O)NCc2ccncc2)cc1-c1nc2c(CC(C)C)nn(C)c2c(=O)[nH]1 [Example 46]
5. CCOc1ccc(S(=O)(=O)NCC2CCCN2C)cc1-c1nc2c(CC(C)C)nn(C)c2c(=O)[nH]1 (centres unmarked) [Example 58]
6. CCCOc1ccc(S(=O)(=O)NCc2cccnc2)cc1-c1nc2c(CCC)nn(C)c2c(=O)[nH]1 [Example 49]

Given back:
215 µg/mL
3720 to 5360 µg/mL
795 µg/mL
183 µg/mL
3720 to 5360 µg/mL
43 µg/mL

Dear colleague, could you send me solubility at 30 min for each of the items below? Thanks.
1. CCCOc1ccc(S(=O)(=O)NCc2ccncc2)cc1-c1nc2c(CCC)nn(C)c2c(=O)[nH]1 [Example 44]
2. CCCOc1ccc(S(=O)(=O)Nc2ccncc2)cc1-c1nc2c(CCC)nn(C)c2c(=O)[nH]1 [Example 35]
3. CCOc1ccc(S(=O)(=O)NCc2cccnc2)cc1-c1nc2c(CC(C)C)nn(C)c2c(=O)[nH]1 [Example 48]
4. CCOc1ccc(S(=O)(=O)NCC2CCN(C)C2)cc1-c1nc2c(CC(C)C)nn(C)c2c(=O)[nH]1 (centres unmarked) [Example 62]
5. CCCOc1ccc(S(=O)(=O)NCC2CCCN2C)cc1-c1nc2c(CCC)nn(C)c2c(=O)[nH]1 (centres unmarked) [Example 56]

Given back:
1. 373 µg/mL
2. 11 µg/mL
3. 114 µg/mL
4. 3720 to 5360 µg/mL
5. 3720 to 5360 µg/mL

---

# assayed_system: Phosphodiesterase-5 enzyme (PDE 5) (Homo sapiens, UniProt O76074)
Lab note - cut at 9 nM for IC50: yes if strictly below, no if not.

Answered examples (2):
molecule	category
CCCOc1ccc(S(=O)(=O)NCC2CCN(CC)C2)cc1-c1nc2c(CCC)nn(C)c2c(=O)[nH]1 (stereo not shown)	no
CCCOc1ccc(S(=O)(=O)NCc2cccnc2)cc1-c1nc2c(CCC)nn(C)c2c(=O)[nH]1	yes

Asked: Consider CCCc1nn(CC)c2c(=O)[nH]c(-c3cc(S(=O)(=O)Nc4ccc(C(C)(C)C)cc4)ccc3OCC)nc12 . Does its IC50 lie strictly below 9 nM?
Given back: no

Asked: Consider CCOc1ccc(S(=O)(=O)NCC2CCN(C)C2)cc1-c1nc2c(CC(C)C)nn(C)c2c(=O)[nH]1 (stereo not shown) . Does its IC50 lie strictly below 9 nM?
Given back: no

Asked: Consider CCOc1ccc(S(=O)(=O)NCc2cccnc2)cc1-c1nc2c(CC(C)C)nn(C)c2c(=O)[nH]1 . Does its IC50 lie strictly below 9 nM?
Given back: yes

---

Give IC50 for every item shown.
# assayed_system: Phosphodiesterase-3 enzyme (PDE 3) (Oryctolagus cuniculus, UniProt G1ST54)
# Sequence (G1ST54 1-1128): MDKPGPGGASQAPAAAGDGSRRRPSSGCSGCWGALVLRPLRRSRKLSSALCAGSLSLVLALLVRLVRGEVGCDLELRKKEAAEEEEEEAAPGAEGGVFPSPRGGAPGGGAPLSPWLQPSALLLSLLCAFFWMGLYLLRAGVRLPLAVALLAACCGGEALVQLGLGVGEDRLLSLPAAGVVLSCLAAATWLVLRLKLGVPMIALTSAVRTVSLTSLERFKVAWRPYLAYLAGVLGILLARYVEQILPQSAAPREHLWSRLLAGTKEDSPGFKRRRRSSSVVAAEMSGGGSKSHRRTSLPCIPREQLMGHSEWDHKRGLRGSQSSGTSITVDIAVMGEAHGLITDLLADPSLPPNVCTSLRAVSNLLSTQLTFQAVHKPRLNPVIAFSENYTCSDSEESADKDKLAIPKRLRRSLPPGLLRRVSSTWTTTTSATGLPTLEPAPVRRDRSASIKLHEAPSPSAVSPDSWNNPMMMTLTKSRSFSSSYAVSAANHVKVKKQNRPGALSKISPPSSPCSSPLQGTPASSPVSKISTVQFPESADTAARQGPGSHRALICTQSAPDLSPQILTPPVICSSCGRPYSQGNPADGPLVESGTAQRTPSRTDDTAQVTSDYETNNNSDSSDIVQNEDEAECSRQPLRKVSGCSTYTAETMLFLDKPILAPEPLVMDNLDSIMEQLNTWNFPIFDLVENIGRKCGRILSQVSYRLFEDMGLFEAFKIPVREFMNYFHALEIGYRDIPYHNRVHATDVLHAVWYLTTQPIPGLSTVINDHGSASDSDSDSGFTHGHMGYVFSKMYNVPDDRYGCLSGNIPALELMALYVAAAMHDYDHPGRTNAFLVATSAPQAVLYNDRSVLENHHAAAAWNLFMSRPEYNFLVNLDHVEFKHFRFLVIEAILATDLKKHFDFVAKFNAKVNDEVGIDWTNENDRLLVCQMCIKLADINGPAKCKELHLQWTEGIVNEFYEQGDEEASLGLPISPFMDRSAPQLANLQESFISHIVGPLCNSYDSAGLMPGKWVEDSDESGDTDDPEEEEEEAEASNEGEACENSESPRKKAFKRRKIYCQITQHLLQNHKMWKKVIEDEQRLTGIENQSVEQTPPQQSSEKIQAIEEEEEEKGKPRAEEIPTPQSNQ
Answers are plain numbers, in µM.

Dear colleague, could you send me IC50 for each of the items below? Thanks.
1. CCOc1ccc(S(=O)(=O)NCC2CCN(CC)C2)cc1-c1nc2c(CC(C)C)nn(C)c2c(=O)[nH]1 (stereo not shown)
2. CCCc1nn(C)c2c(=O)[nH]c(-c3cc(S(=O)(=O)Nc4cccnc4)ccc3OCC)nc12
3. CCCOc1ccc(S(=O)(=O)NCCC2CCCN2C)cc1-c1nc2c(CCC)nn(C)c2c(=O)[nH]1 (stereo not shown)
4. CCOc1ccc(S(=O)(=O)NCC2CCN(C)C2)cc1-c1nc2c(CC(C)C)nn(C)c2c(=O)[nH]1 (stereo not shown)

Given back:
1. 90.4
2. 208
3. 70.1
4. 164

---

# assay_details: Solubility in buffer solution in pH=2&5
# Type: physicochemical
# assay_conditions: citrate-HCl buffer (pH 2)
property_name: solubility pH 2
Reply with the number, then its unit.

Below: 4 molecules and their reported solubility pH 2.
molecule	val
CCCOc1ccc(S(=O)(=O)NCC2CCCN2C)cc1-c1nc2c(CCC)nn(C)c2c(=O)[nH]1 (centres unmarked)	3918 ug/ml
CCCOc1ccc(S(=O)(=O)NCCC2CCCN2C)cc1-c1nc2c(CCC)nn(C)c2c(=O)[nH]1 (centres unmarked)	5356 ug/ml
CCOc1ccc(S(=O)(=O)NCC2CCCN2C)cc1-c1nc2c(CC(C)C)nn(C)c2c(=O)[nH]1 (centres unmarked)	3722 ug/ml
CCOc1ccc(S(=O)(=O)NCC2CCN(C)C2)cc1-c1nc2c(CC(C)C)nn(C)c2c(=O)[nH]1 (centres unmarked)	4383 ug/ml

Please look at the following molecule next.
In plain terms, CCCOc1ccc(S(=O)(=O)NCC2CCN(C)C2)cc1-c1nc2c(CCC)nn(C)c2c(=O)[nH]1 (centres unmarked) has a documented solubility pH 2 of 4497 ug/ml
